B1: Runt-related transcription factor 3 (Homo sapiens), Q13761 (parent)
chain: MRIPVDPSTSRRFTPPSPAFPCGGGGGKMGENSGALSAQAAVGPGGRARPEVRSMVDVLADHAGELVRTDSPNFLCSVLPSHWRCNKTLPVAFKVVALGDVPDGTVVTVMAGNDENYSAELRNASAVMKNQVARFNDLRFVGRSGRGKSFTLTITVFTNPTQVATYHRAIKVTVDGPREPRRHRQKLEDQTKPFPDRFGDLERLRMRVTPSTPSPRGSLSTTSHFSSQPQTPIQGTSELNPFSDPRQFDRSFPTLPTLTESRFPDPRMHYPGAMSAAFPYSATPSGTSISSLSVAGMPATSRFHHTYLPPPYPGAPQNQSGPFQANPSPYHLYYGTSSGSYQFSMVAGSSSGGDRSPTRMLASCTSSAASVAAGNLMNPSLGGQSDGVEADGSHSNSPTALSTPGRMDEAVWRPY

- Variants of: B1
- conditionNotes: with brd2_human BRD2, P25440

mutationId	effect of a mutation on the interaction
K94R;K171R	disrupting interaction
K87R;K94R;K129R;K148R;K171R;K186R	disrupting interaction
K94R	disrupting interaction
